The measurements presented in this section are drawn from ChEMBL document CHEMBL4304804.

# MEASURED TARGET: Acetylcholinesterase (Electrophorus electricus)
# Sequence (O42275 whole entry): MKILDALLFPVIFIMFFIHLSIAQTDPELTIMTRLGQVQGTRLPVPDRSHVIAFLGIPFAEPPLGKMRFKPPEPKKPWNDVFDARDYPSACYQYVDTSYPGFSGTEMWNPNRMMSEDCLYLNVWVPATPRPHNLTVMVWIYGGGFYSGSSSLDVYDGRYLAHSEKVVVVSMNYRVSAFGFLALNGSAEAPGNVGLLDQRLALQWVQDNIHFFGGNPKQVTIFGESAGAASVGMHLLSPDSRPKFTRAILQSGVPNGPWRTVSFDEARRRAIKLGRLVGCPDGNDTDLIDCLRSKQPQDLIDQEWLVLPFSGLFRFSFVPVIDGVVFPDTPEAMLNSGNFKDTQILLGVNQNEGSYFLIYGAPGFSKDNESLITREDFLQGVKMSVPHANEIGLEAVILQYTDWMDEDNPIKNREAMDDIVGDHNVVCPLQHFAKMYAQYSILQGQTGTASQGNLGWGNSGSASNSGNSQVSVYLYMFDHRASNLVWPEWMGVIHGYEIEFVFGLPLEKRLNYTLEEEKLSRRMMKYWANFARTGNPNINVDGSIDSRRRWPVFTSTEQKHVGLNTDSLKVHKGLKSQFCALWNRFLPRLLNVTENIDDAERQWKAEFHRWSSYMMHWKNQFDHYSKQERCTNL
pIC50: −log10 of the molar value.
MEASUREMENT LABEL: pIC50

1. CCCCCC(=O)N1CCCC2(O)c3ccccc3N(C)C12 (centres undefined) : 5.12
2. CCCCCCC(=O)N1CCC2(Cc3cccc(C)c3)c3ccccc3N(Cc3cccc(C)c3)C12 (centres undefined) : 4.74
3. CN1c2ccccc2C2(O)CCCN(C(=O)c3ccccc3)C12 (centres undefined) : 6.59
4. CCCCC(=O)N1CCC2(Cc3ccccc3C)c3ccccc3N(Cc3ccccc3C)C12 (centres undefined) : 3.48
5. Cc1cccc(CN2c3ccccc3C3(Cc4cccc(C)c4)CCN(C(=O)CCc4ccccc4)C23)c1 (centres undefined) : 8.40
6. CN1c2ccccc2C2(O)CCCN(C(=O)c3cccc(F)c3)C12 (centres undefined) : 6.47
7. COc1ccc(C(=O)N2CCC3(Cc4ccccc4C)c4ccccc4N(Cc4ccccc4C)C23)cc1 (centres undefined) : 3.90
8. CCCCCC(=O)N1CCC2(Cc3cccc(C)c3)c3ccccc3N(Cc3cccc(C)c3)C12 (centres undefined) : 3.85
9. Cc1cccc(CN2c3ccccc3C3(Cc4cccc(C)c4)CCN(C(=O)c4ccccc4)C23)c1 (centres undefined) : 4.35

====

# Test system: Curvularia lunata
# ASSAY: Antifungal activity against Curvularia lunata assessed as reduction in fungal cell growth incubated for 48 hrs by serial dilution method
# Type: functional
Calls of active or inactive are those of the source. The rule behind the calls is not given here.
MEASUREMENT LABEL: MIC

1) CCCCC(=O)N1CCCC2(O)c3ccccc3N(C)C12 (stereo unspecified) : inactive
2) Cc1cccc(C(=O)N2CCCC3(O)c4ccccc4N(C)C23)c1 (stereo unspecified) : inactive
3) Cc1ccc(S(=O)(=O)N2CCC3(Cc4ccccc4C)c4ccccc4N(Cc4ccccc4C)C23)cc1 (stereo unspecified) : inactive
4) CCCCCCCC(=O)N1CCC2(Cc3cccc(C)c3)c3ccccc3N(Cc3cccc(C)c3)C12 (stereo unspecified) : 125 µg/mL
5) Cc1cccc(CN2c3ccccc3C3(Cc4cccc(C)c4)CCN(C(=O)Cc4ccccc4)C23)c1 (stereo unspecified) : inactive
6) CCCCCC(=O)N1CCC2(Cc3cccc(C)c3)c3ccccc3N(Cc3cccc(C)c3)C12 (stereo unspecified) : inactive
7) COc1ccc(C(=O)N2CCC3(Cc4ccccc4C)c4ccccc4N(Cc4ccccc4C)C23)cc1 (stereo unspecified) : inactive
8) CCCCCCCC(=O)N1CCC2(Cc3ccccc3C)c3ccccc3N(Cc3ccccc3C)C12 (stereo unspecified) : 125 µg/mL
9) Cc1ccccc1CN1c2ccccc2C2(Cc3ccccc3C)CCN(C(=O)COc3ccccc3)C12 (stereo unspecified) : inactive
10) Cc1ccccc1CN1c2ccccc2C2(Cc3ccccc3C)CCN(S(=O)(=O)c3ccccc3)C12 (stereo unspecified) : inactive
11) CCCCCCCC(=O)N1CCCC2(O)c3ccccc3N(C)C12 (stereo unspecified) : 125 µg/mL
12) CCCC(=O)N1CCCC2(O)c3ccccc3N(C)C12 (stereo unspecified) : inactive
13) N#Cc1c(Cl)c(Cl)c(Cl)c(C#N)c1Cl [CHLOROTHALONIL] : 125 µg/mL
14) CCCCC(=O)N1CCC2(Cc3ccccc3C)c3ccccc3N(Cc3ccccc3C)C12 (stereo unspecified) : inactive
15) CCCCCCC(=O)N1CCCC2(O)c3ccccc3N(C)C12 (stereo unspecified) : 62.5 µg/mL
16) Cc1ccccc1CN1c2ccccc2C2(Cc3ccccc3C)CCN(C(=O)c3ccccc3C)C12 (stereo unspecified) : 62.5 µg/mL
17) Cc1cccc(CN2c3ccccc3C3(Cc4cccc(C)c4)CCN(C(=O)c4ccccc4)C23)c1 (stereo unspecified) : inactive
18) Cc1ccc(C(=O)N2CCCC3(O)c4ccccc4N(C)C23)cc1 (stereo unspecified) : inactive
19) CCCCCCC(=O)N1CCC2(Cc3cccc(C)c3)c3ccccc3N(Cc3cccc(C)c3)C12 (stereo unspecified) : 62.5 µg/mL
20) CCC(=O)N1CCC2(Cc3cccc(C)c3)c3ccccc3N(Cc3cccc(C)c3)C12 (stereo unspecified) : 250 µg/mL
21) CN1c2ccccc2C2(O)CCCN(C(=O)c3ccccc3)C12 (stereo unspecified) : inactive
